- Tested on: rabbit blood erythrocytes
- protocol.description: Measurement of hemolytic concentration
- Type: cell-based
- settings: rabbit erythrocytes
test.readout: Minimum hemolytic concentration

The cases that follow already have their Minimum hemolytic concentration on record.
INSERT INTO assay_data (substance, experimental_target, result) VALUES
  ('Example 1: GIFKKITGKLFKWIK (designated as AMP5)', 'rabbit blood erythrocytes', '3.7 µg/mL'),
  ('HPA3NT3: antimicrobial peptide HPA3NT3, FKRLKKLFKKKKIWNWK [reference compound]', 'rabbit blood erythrocytes', '64.0 µg/mL'),
  ('FK13: antimicrobial peptide FK13, FPLTWLKWWKWKKK [reference compound]', 'rabbit blood erythrocytes', '64.0 µg/mL');

We now examine a further substance.
Q: Recorded Minimum hemolytic concentration of Example 2: LSKWLKKLGKLLAG (designated as AMP33) , please.
Result: 64.0 µg/mL

---

Answer each item with its documented Maximum cytotoxicity-free concentration.
- Test system: HaCat (human immortalized epidermal cells) cells
- protocol.description: Cytotoxic assay (CCK-8) in HaCat cells
- Assay type: cell-based
- settings: 60 hours
Numbers only, in µg/mL.

The cases that follow already have their Maximum cytotoxicity-free concentration on record.
INSERT INTO measurements (substance, test_readout, result_number) VALUES
  ('Example 2: LSKWLKKLGKLLAG (designated as AMP33)', 'Maximum cytotoxicity-free concentration', 80),
  ('Example 1: GIFKKITGKLFKWIK (designated as AMP5)', 'Maximum cytotoxicity-free concentration', 80),
  ('HPA3NT3: antimicrobial peptide HPA3NT3, FKRLKKLFKKKKIWNWK [reference compound]', 'Maximum cytotoxicity-free concentration', 32);

We now examine a further substance.
Q: Quick check: Maximum cytotoxicity-free concentration on HaCat (human immortalized epidermal cells) cells, item FK13: antimicrobial peptide FK13, FPLTWLKWWKWKKK [reference compound] ?
Result: 80

---

Answer each item with its documented Minimum inhibitory concentration on Staphylococcus aureus.
- Tested on: Staphylococcus aureus
- protocol.description: Minimum inhibitory concentration on Staphylococcus aureus (liquid culture)
- Format: cell-based
- settings: 37° C., 24 to 48 hours
Reply with the number, then its unit.

The cases that follow already have their Minimum inhibitory concentration on Staphylococcus aureus on record.
INSERT INTO results (substance, result) VALUES
  ('Example 2: LSKWLKKLGKLLAG (designated as AMP33)', '12.5 µg/mL'),
  ('Example 1: GIFKKITGKLFKWIK (designated as AMP5)', '50 µg/mL'),
  ('HPA3NT3: antimicrobial peptide HPA3NT3, FKRLKKLFKKKKIWNWK [reference compound]', '4 µg/mL');

We now examine a further substance.
Q: Recorded Minimum inhibitory concentration on Staphylococcus aureus of FK13: antimicrobial peptide FK13, FPLTWLKWWKWKKK [reference compound] , please.
Result: 4 µg/mL
